Entries and their EGFR activity (% Control, 100 nM drug) L858R/T790M values follow.
# testTarget: EGFR L858R/T790M Ba/F3 cells (Homo sapiens (Human), UniProt P00533, L858R/T790M)
# measurementNotes: Ba/F3 cell growth inhibition (MTS assay), EGFR L858R/T790M
# Format: cell-based
# experimentalParameters: 100 nM drug; Table F
Give your result in % Control as a bare value.

Field: example entries. Status: answers known.
molecule: C=CC(=O)Nc1ccc(OC)c(Nc2cc(N(C)C(=O)Nc3ccc(F)c(Cl)c3)ncn2)c1 [Compound 18A]
testTarget: EGFR L858R/T790M Ba/F3 cells (Homo sapiens (Human), UniProt P00533, L858R/T790M)
quantitativeReadout: 85
--
molecule: C=CC(=O)Nc1ccc(OC)c(Nc2cc(N(C)C(=O)NCc3ccccc3)ncn2)c1 [Compound 16A]
testTarget: EGFR L858R/T790M Ba/F3 cells (Homo sapiens (Human), UniProt P00533, L858R/T790M)
quantitativeReadout: 71

Recall the reported EGFR activity (% Control, 100 nM drug) L858R/T790M of C=CC(=O)Nc1cccc(Nc2cc(N(C)C(=O)Nc3ccccc3)ncn2)c1 [Compound 13A] on EGFR L858R/T790M Ba/F3 cells (Homo sapiens (Human), UniProt P00533, L858R/T790M) and write it down. 71

Recall the reported EGFR activity (% Control, 100 nM drug) L858R/T790M of C=CC(=O)Nc1ccc(OC)c(Nc2cc(N(C)C(=O)Nc3ccccc3)ncn2)c1 [Compound 12A] on EGFR L858R/T790M Ba/F3 cells (Homo sapiens (Human), UniProt P00533, L858R/T790M) and write it down. 48

====

Entries and their IC50 values follow.
# testTarget: EGFR Wild type vIII Ba/F3 cells (Homo sapiens (Human), UniProt P00533, DELINS30-297G)
# measurementNotes: Ba/F3 cell growth inhibition (MTS assay), EGFR Wild type vIII
# Type: cell-based
# experimentalParameters: Assay 1, read-out: EGFR Ba/F3 cells IC 50 (nM) Assay 1 Wild type vIII
Write the numeric value and follow it with the unit.

molecule: C=CC(=O)Nc1cccc(N(C(=O)NCc2ccccc2)c2cc(Nc3ccc(N4CCN(C)CC4)cc3OC)nc(Cl)n2)c1 [Compound 78A]
quantityMeasured: IC50
result: 19.9 nM
//
molecule: C=CC(=O)Nc1cccc(N(C(=O)Nc2ccccc2)c2cc(Nc3ccc(N4CCN(C)CC4)cc3OC)ncn2)c1
quantityMeasured: IC50
result: 16.4 nM
//
molecule: C=CC(=O)Nc1cccc(N(C(=O)NCc2cccs2)c2cc(Nc3ccc(N4CCOCC4)cc3OC)ncn2)c1 [Compound 55A]
quantityMeasured: IC50
result: 2.3 nM
//
molecule: C=CC(=O)Nc1cccc(N(C(=O)OCc2ccccc2)c2ccnc(Nc3ccc(N4CCN(C)CC4)cc3OC)n2)c1
quantityMeasured: IC50
result: 2.92 nM

Now for a further molecule.
For the molecule C=CC(=O)Nc1cccc(N(C(=O)N[C@@H](C)c2ccccc2)c2cc(Nc3ccc(N4CCN(C)CC4)cc3OC)ncn2)c1 [Compound 34A] , give its measured IC50 value. 10.1 nM

====

# testTarget: EGFR Del/T790M/L718Q Ba/F3 cells (Homo sapiens, UniProt P00533, L718Q/T790M, cells depend on it, form not given)
# Assay type: cell-based
# experimentalParameters: 1.0 μM drug; Assay 1
Entries and their EGFR activity (% Control, 1.0 μM drug) Assay 1 Del/T790M/L718Q values follow.
Give your result in % Control as a bare value.

smilesRepresentation: C=CC(=O)Nc1cccc(N(C(=O)Nc2ccccc2)c2cc(Nc3ccc(N4CCN(C)CC4)cc3OC)ncn2)c1
units: % Control
quantitativeReadout: 63
--
smilesRepresentation: C=CC(=O)Nc1cccc(N(C(=O)NCc2ccccc2)c2cc(Nc3ccc(N4CCN(C)CC4)cc3OC)ncn2)c1
units: % Control
quantitativeReadout: 53

Now for a further compound.
For the compound "C=CC(=O)Nc1ccc(OC)c(N(C(=O)Nc2c(C)cccc2C)c2cc(Nc3ccc(N4CCN(CC)CC4)cc3)ncn2)c1" , give its measured EGFR activity (% Control, 1.0 μM drug) Assay 1 Del/T790M/L718Q value. 113

Source: patent US10906878B2
